test: The drug is tested on Z-019 corresponding to rat gut metagenome with ENA study accession number: PRJEB37062 and ENA sample accession number: ERS12561818 for biotransformation under anaerobic condition. The drug concentrations were measured over 9 timepoints collected between 0 and 24 hours of incubation by liquid-chromatography-coupled mass spectrometry (LC–MS); details: 2 µM; also: call rule not given here
property.name: Bacterial Biotransformation

[
  {
    "compound": "O=C(O)CCc1nc(-c2ccccc2)c(-c2ccccc2)o1",
    "property.name": "Bacterial Biotransformation",
    "recorded.measurement": "Compound NOT metabolized"
  },
  {
    "compound": "CCN(CC)CC#CCOC(=O)C(O)(c1ccccc1)C1CCCCC1.Cl (centres undefined) [OXYBUTYNIN CHLORIDE]",
    "property.name": "Bacterial Biotransformation",
    "recorded.measurement": "Compound NOT metabolized"
  },
  {
    "compound": "CCCCC(=O)N(Cc1ccc(-c2ccccc2-c2nnn[nH]2)cc1)[C@H](C(=O)O)C(C)C",
    "property.name": "Bacterial Biotransformation",
    "recorded.measurement": "Compound NOT metabolized"
  }
]

====

test: The drug is tested on WLS-027 corresponding to human gut metagenome with ENA study accession number: PRJEB37062 and ENA sample accession number: ERS12561744 for biotransformation under anaerobic condition. The drug concentrations were measured over 9 timepoints collected between 0 and 24 hours of incubation by liquid-chromatography-coupled mass spectrometry (LC–MS); settings: 2 µM
Where a SMILES comes first, the peptide text is derived from it. [ ]: non-standard residue; d: D form. pGlu = O=C1CC[C@@H](C(=O)O)N1; Thz = O=C(O)[C@@H]1CSCN1

[
  {
    "compound": "O=C(O)CCc1nc(-c2ccccc2)c(-c2ccccc2)o1",
    "Bacterial Biotransformation": "Compound metabolized"
  },
  {
    "compound": "Cc1ccc(/C(=C\\CN2CCCC2)c2ccccn2)cc1",
    "Bacterial Biotransformation": "Compound NOT metabolized"
  },
  {
    "compound": "Cc1cc2c(cc1S(N)(=O)=O)S(=O)(=O)CCC2",
    "Bacterial Biotransformation": "Compound NOT metabolized"
  },
  {
    "compound": "Nc1c2c(nc3ccccc13)CCCC2",
    "Bacterial Biotransformation": "Compound NOT metabolized"
  },
  {
    "compound": "COc1ccccc1OCC(O)COC(N)=O (centres undefined)",
    "Bacterial Biotransformation": "Compound NOT metabolized"
  },
  {
    "compound": "CC(Oc1c(Cl)cccc1Cl)C1=NCCN1 (centres undefined)",
    "Bacterial Biotransformation": "Compound metabolized"
  },
  {
    "compound": "CNC(=C[N+](=O)[O-])NCCSCc1ccc(CN(C)C)o1",
    "Bacterial Biotransformation": "Compound NOT metabolized"
  },
  {
    "compound": "CC(C)(C(=O)O)c1ccc(C(O)CCCN2CCC(C(O)(c3ccccc3)c3ccccc3)CC2)cc1 (centres undefined) [FEXOFENADINE]",
    "Bacterial Biotransformation": "Compound NOT metabolized"
  },
  {
    "compound": "Cc1nc2n(c(=O)c1CCN1CCC(c3noc4cc(F)ccc34)CC1)CCCC2O (centres undefined)",
    "Bacterial Biotransformation": "Compound metabolized"
  },
  {
    "compound": "CN1CCN(C2=Nc3cc(Cl)ccc3Nc3ccccc32)CC1",
    "Bacterial Biotransformation": "Compound metabolized"
  },
  {
    "compound": "CS(=O)(=O)O.OC(CCN1CCCCC1)(c1ccccc1)c1ccccc1 [PRIDINOL METHANESULFONATE]",
    "Bacterial Biotransformation": "Compound NOT metabolized"
  },
  {
    "compound": "COc1ccc(CCN(C)CCCC(C#N)(c2ccc(OC)c(OC)c2)C(C)C)cc1OC (centres undefined)",
    "Bacterial Biotransformation": "Compound metabolized"
  },
  {
    "compound": "O=C1CC[C@@H](C(=O)N2CSC[C@H]2C(=O)O)N1 [PIDOTIMOD] ([pGlu]-[Thz]-OH)",
    "Bacterial Biotransformation": "Compound NOT metabolized"
  },
  {
    "compound": "COc1ccccc1N1CCN(CC(O)COc2cccc3ccccc23)CC1 (centres undefined)",
    "Bacterial Biotransformation": "Compound NOT metabolized"
  },
  {
    "compound": "COc1ccccc1OCC(O)CN1CCN(CC(=O)Nc2c(C)cccc2C)CC1 (centres undefined)",
    "Bacterial Biotransformation": "Compound NOT metabolized"
  },
  {
    "compound": "COc1ccc2c3c1O[C@H]1C[C@@H](O)C=C[C@@]31CCN(C)C2",
    "Bacterial Biotransformation": "Compound NOT metabolized"
  },
  {
    "compound": "CC(C)(Oc1ccc(CCNC(=O)c2ccc(Cl)cc2)cc1)C(=O)O [BEZAFIBRATE]",
    "Bacterial Biotransformation": "Compound metabolized"
  },
  {
    "compound": "CCCCC(=O)N(Cc1ccc(-c2ccccc2-c2nnn[nH]2)cc1)[C@H](C(=O)O)C(C)C",
    "Bacterial Biotransformation": "Compound metabolized"
  },
  {
    "compound": "O=c1n(CCCN2CCN(c3cccc(Cl)c3)CC2)nc2ccccn12",
    "Bacterial Biotransformation": "Compound metabolized"
  }
]
